These measurements were taken from patent US6890920B2.

# TEST_SYSTEM: muscarinic receptor M1 (Homo sapiens, UniProt P11229)
# Construct: expressed in transfected cells
# Sequence (P11229 whole entry): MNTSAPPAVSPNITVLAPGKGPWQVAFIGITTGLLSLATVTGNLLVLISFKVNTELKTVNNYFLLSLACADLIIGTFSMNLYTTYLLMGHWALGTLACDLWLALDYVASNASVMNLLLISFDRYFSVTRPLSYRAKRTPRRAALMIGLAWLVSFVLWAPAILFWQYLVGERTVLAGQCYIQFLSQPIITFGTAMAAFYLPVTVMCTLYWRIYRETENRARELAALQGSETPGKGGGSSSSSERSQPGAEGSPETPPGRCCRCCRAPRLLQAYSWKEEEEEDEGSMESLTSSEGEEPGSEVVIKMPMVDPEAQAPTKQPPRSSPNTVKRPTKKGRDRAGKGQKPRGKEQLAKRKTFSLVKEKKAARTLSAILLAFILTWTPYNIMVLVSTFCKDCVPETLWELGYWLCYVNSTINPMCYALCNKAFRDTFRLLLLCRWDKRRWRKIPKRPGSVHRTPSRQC
# METHOD_DESCRIPTION: Muscarinic receptor subtype M1 binding assay, radioligand displacement
Assignment: determine reported Ki for the given molecules.
Could you kindly put the unit after your number?

molecule="Cc1ccc(O)c([C@H](CC[N+](C)(C(C)C)C(C)C)c2ccccc2)c1.[I-] [Example 2]" result="0.33 nM"

Now consider the entry below.
-- ask Let me know recorded Ki for Cc1ccc(O)c([C@H](CCN(C(C)C)C(C)C)c2ccccc2)c1 [Tolterodine, reference compound] , thanks.
-- reply 0.87 nM
